Reference source for all entries: PubChem BioAssay AID2060487

Some compounds, each annotated with its measured viability, T/C.
- Tested on: 997537-175-T-J1-PDC complex spheroid viability;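 further: spheroids exposed to the agents for 7 days; 100% = DMSO vehicle control viability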
- protocol: Anticancer human tumor 997537-175-T-J1-PDC patient-derived colon adenocarcinoma cell line growth inhibition [GQUAD]
- condition: second compound 3.16 µM; first compound 0.0316 µM; stronger effect = lower value
- Source text: DNA G-quadruplex Stabilizer Agents in Combinations in Complex Spheroids A high-throughput screen of multi-cell type tumor spheroids was designed to identify active combinations of DNA G-quadruplex stabilizer agents and targeted small molecules. […] Compounds. […] If the clinical Cmax for an agent had not been determined, the highest concentration tested was 10 microM. […]
parameterMeasured: viability, T/C (%)

>>> valuemeasured("O=C(NO)c1cnc(N2CCN(S(=O)(=O)c3ccc4ccccc4c3)CC2)nc1 + Cc1[nH]c2ccc(F)cc2c1-c1nc2c3cccnc3c3ncccc3c2[nH]1")
55.9
>>> valuemeasured("CC(=O)O[C@H]1C(=O)[C@@]2(C)[C@H]([C@H](OC(=O)c3ccccc3)[C@]3(O)C[C@H](OC(=O)[C@H](O)[C@@H](NC(=O)c4ccccc4)c4ccccc4)C(C)=C1C3(C)C)[C@]1(OC(C)=O)CO[C@@H]1C[C@@H]2O + CN(C)c1ccc(Nc2c3ccc(NC(=O)CCN4CCCC4)cc3nc3cc(NC(=O)CCN4CCCC4)ccc23)cc1")
37.7
>>> valuemeasured("C=CCn1c(=O)c2cnc(Nc3ccc(N4CCN(C)CC4)cc3)nc2n1-c1cccc(C(C)(C)O)n1 + CN(C)c1ccc(Nc2c3ccc(NC(=O)CCN4CCCC4)cc3nc3cc(NC(=O)CCN4CCCC4)ccc23)cc1")
74.3
>>> valuemeasured("Cc1cccc(N(C)C(=O)C2C(O)CCN2c2nc(C)cc(C(F)(F)F)c2C#N)c1 (stereo not given) + CN(C)c1ccc(Nc2c3ccc(NC(=O)CCN4CCCC4)cc3nc3cc(NC(=O)CCN4CCCC4)ccc23)cc1")
61.4
>>> valuemeasured("CC(=O)O[C@H]1C(=O)[C@@]2(C)[C@H]([C@H](OC(=O)c3ccccc3)[C@]3(O)C[C@H](OC(=O)[C@H](O)[C@@H](NC(=O)c4ccccc4)c4ccccc4)C(C)=C1C3(C)C)[C@]1(OC(C)=O)CO[C@@H]1C[C@@H]2O + Cc1cnc(CNC(=O)c2c(=O)c3ccc(N4CCCN(C)CC4)nc3n3c2sc2ccccc23)cn1")
68.7
>>> valuemeasured("Cc1[nH]c2ccccc2c1CCNCc1ccc(/C=C/C(=O)NO)cc1 + Cc1[nH]c2ccc(F)cc2c1-c1nc2c3cccnc3c3ncccc3c2[nH]1")
96.3
>>> valuemeasured("COc1ncnc(C2CC2)c1-c1ncc2cnn(Cc3ccc(-c4nc(C(F)(F)F)cn4C(C)C)cc3)c2n1 + CN(C)c1ccc(Nc2c3ccc(NC(=O)CCN4CCCC4)cc3nc3cc(NC(=O)CCN4CCCC4)ccc23)cc1")
74.5
>>> valuemeasured("Nc1ccn(C2OC(CO)C(O)C2(F)F)c(=O)n1 (stereo not given) + CN(C)c1ccc(Nc2c3ccc(NC(=O)CCN4CCCC4)cc3nc3cc(NC(=O)CCN4CCCC4)ccc23)cc1")
55.6
>>> valuemeasured("O=c1[nH]cc(F)c(=O)[nH]1 + CN(C)c1ccc(Nc2c3ccc(NC(=O)CCN4CCCC4)cc3nc3cc(NC(=O)CCN4CCCC4)ccc23)cc1")
64.2
>>> valuemeasured("Nc1ccn(C2OC(CO)C(O)C2(F)F)c(=O)n1 (stereo not given) + Cc1cnc(CNC(=O)c2c(=O)c3ccc(N4CCCN(C)CC4)nc3n3c2sc2ccccc23)cn1")
68.8
>>> valuemeasured("CC(C)n1c(=O)n(C)c2cnc3cc(F)c(-c4ccc(OCCCN5CCCCC5)nc4)cc3c21 + Cc1cnc(CNC(=O)c2c(=O)c3ccc(N4CCCN(C)CC4)nc3n3c2sc2ccccc23)cn1")
87
>>> valuemeasured("C#Cc1c(F)ccc2cc(O)cc(-c3ncc4c(N5CC6CCC(C5)N6)nc(OCC56CCCN5CC(F)C6)nc4c3F)c12 (stereo not given) + Cc1[nH]c2ccc(F)cc2c1-c1nc2c3cccnc3c3ncccc3c2[nH]1")
89.4
>>> valuemeasured("Cc1[nH]c2ccccc2c1CCNCc1ccc(/C=C/C(=O)NO)cc1 + Cc1cnc(CNC(=O)c2c(=O)c3ccc(N4CCCN(C)CC4)nc3n3c2sc2ccccc23)cn1")
81.4
>>> valuemeasured("O=C(c1cc(Cc2n[nH]c(=O)c3ccccc23)ccc1F)N1CCN(C(=O)C2CC2)CC1 + Cc1cnc(CNC(=O)c2c(=O)c3ccc(N4CCCN(C)CC4)nc3n3c2sc2ccccc23)cn1")
117
>>> valuemeasured("CC(C)(O)C1CCC(Nc2ccc3ncc(-c4cccc(C(F)(F)F)c4)n3n2)CC1 (stereo not given) + CN(C)c1ccc(Nc2c3ccc(NC(=O)CCN4CCCC4)cc3nc3cc(NC(=O)CCN4CCCC4)ccc23)cc1")
64.5
>>> valuemeasured("CCc1c2c(nc3ccc(O)cc13)-c1cc3c(c(=O)n1C2)COC(=O)[C@]3(O)CC + CN(C)c1ccc(Nc2c3ccc(NC(=O)CCN4CCCC4)cc3nc3cc(NC(=O)CCN4CCCC4)ccc23)cc1")
33.8
>>> valuemeasured("Cc1[nH]c2ccccc2c1CCNCc1ccc(/C=C/C(=O)NO)cc1 + CN(C)c1ccc(Nc2c3ccc(NC(=O)CCN4CCCC4)cc3nc3cc(NC(=O)CCN4CCCC4)ccc23)cc1")
68
>>> valuemeasured("O=C(NO)c1cnc(N2CCN(S(=O)(=O)c3ccc4ccccc4c3)CC2)nc1 + Cc1cnc(CNC(=O)c2c(=O)c3ccc(N4CCCN(C)CC4)nc3n3c2sc2ccccc23)cn1")
104
>>> valuemeasured("CCc1c2c(nc3ccc(O)cc13)-c1cc3c(c(=O)n1C2)COC(=O)[C@]3(O)CC + Cc1[nH]c2ccc(F)cc2c1-c1nc2c3cccnc3c3ncccc3c2[nH]1")
22.1
>>> valuemeasured("CC1COCCN1c1cc(C2(O)CC3CCC(C2)O3)c2cnn(-c3ccn[nH]3)c2n1 (stereo not given) + Cc1[nH]c2ccc(F)cc2c1-c1nc2c3cccnc3c3ncccc3c2[nH]1")
55.1
